Biological target: SARS-CoV-2 Spike Protein (S1 Subunit, Fc Tag) (Sino 40591-V02H) (SARS-CoV-2, UniProt P0DTC2 16-685)
Assay: Luminex, supernatant
Overview of recorded MFI for various binders
Numeric only. Scale: MFI

Worked cases, answers included:
mAb10986 (antibody, V domains shown) VH: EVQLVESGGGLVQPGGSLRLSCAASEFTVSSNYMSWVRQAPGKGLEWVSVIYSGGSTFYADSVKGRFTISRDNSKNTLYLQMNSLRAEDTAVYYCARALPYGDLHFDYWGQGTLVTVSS VL: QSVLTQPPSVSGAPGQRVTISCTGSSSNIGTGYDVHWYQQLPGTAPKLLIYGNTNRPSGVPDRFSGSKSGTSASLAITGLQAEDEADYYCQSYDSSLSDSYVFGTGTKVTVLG :: 16000
mAb10964 (antibody, V domains shown) VH: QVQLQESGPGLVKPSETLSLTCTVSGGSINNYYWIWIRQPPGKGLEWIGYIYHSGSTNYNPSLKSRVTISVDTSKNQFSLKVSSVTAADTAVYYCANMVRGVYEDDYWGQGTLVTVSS VL: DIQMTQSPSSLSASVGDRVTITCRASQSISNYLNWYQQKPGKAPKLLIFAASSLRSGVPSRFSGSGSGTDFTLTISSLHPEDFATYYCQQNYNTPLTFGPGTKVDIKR :: 18600

Okay, now this binder:
Would you kindly share the measured MFI for mAb10954 (antibody, V domains shown) VH: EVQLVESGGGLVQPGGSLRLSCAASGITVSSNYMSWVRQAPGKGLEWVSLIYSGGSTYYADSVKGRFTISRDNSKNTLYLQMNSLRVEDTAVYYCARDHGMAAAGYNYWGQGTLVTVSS VL: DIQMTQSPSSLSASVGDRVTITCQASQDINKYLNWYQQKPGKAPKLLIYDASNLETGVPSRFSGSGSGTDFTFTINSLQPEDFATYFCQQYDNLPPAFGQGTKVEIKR ?
16600
